test system: HT-29; experiment: Ratio of 5-fluorouracil IC50 to compound IC50 for human HT-29 cells after 48 hrs by sulforhodamine B assay; assay type: functional
Threshold 70. Ratio IC50 below it: Criterion met. Ratio IC50 at it or above: Criterion not met.

[[record]]
molecule = "O=C1/C(=C\\c2ccccc2)CN(CCCN2C/C(=C\\c3ccccc3)C(=O)/C(=C/c3ccccc3)C2)C/C1=C\\c1ccccc1"
target_system = "HT-29"
assigned_class = "Criterion met"


[in] Find out if reported Ratio IC50 for COc1cc(/C=C/C(=O)CC(=O)/C=C/c2ccc(O)c(OC)c2)ccc1O [CURCUMIN] is less than 70
[out] Criterion met

[in] is_below(Ratio IC50, 70) for O=C1/C(=C/c2ccc(F)cc2)CN(C(=O)C(=O)N2C/C(=C\c3ccc(F)cc3)C(=O)/C(=C/c3ccc(F)cc3)C2)C/C1=C\c1ccc(F)cc1 ?
[out] Criterion not met

[in] I wonder whether O=C1/C(=C/c2ccccc2)CN(C(=O)C(=O)N2C/C(=C\c3ccccc3)C(=O)/C(=C/c3ccccc3)C2)C/C1=C\c1ccccc1 has Ratio IC50 below 70. Can you tell?
[out] Criterion not met

[in] Below 70 on Ratio IC50? Entry CN(C)c1ccc(/C=C2/CN(C(=O)CC(=O)N3C/C(=C\c4ccc(N(C)C)cc4)C(=O)/C(=C/c4ccc(N(C)C)cc4)C3)C/C(=C\c3ccc(N(C)C)cc3)C2=O)cc1
[out] Criterion met

[in] Given Cc1ccc(/C=C2/CN(C(=O)CC(=O)N3C/C(=C\c4ccc(C)cc4)C(=O)/C(=C/c4ccc(C)cc4)C3)C/C(=C\c3ccc(C)cc3)C2=O)cc1 , is recorded Ratio IC50 strictly lower than 70?
[out] Criterion met

[in] Is 70 strictly greater than the molecule's reported Ratio IC50? molecule: CN(C)c1ccc(/C=C2\CN(C(=O)C(=O)N3C/C(=C\c4ccc(N(C)C)cc4)C(=O)/C(=C/c4ccc(N(C)C)cc4)C3)C/C(=C\c3ccc(N(C)C)cc3)C2=O)cc1
[out] Criterion met

[in] Answer whether the molecule Cc1ccc(/C=C2\CN(C(=O)C(=O)N3C/C(=C\c4ccc(C)cc4)C(=O)/C(=C/c4ccc(C)cc4)C3)C/C(=C\c3ccc(C)cc3)C2=O)cc1 has Ratio IC50 strictly less than 70
[out] Criterion met

[in] Does the reported Ratio IC50 of the following molecule sit strictly below 70? O=C1/C(=C\c2ccc(Cl)c(Cl)c2)CN(C(=O)CC(=O)N2C/C(=C\c3ccc(Cl)c(Cl)c3)C(=O)/C(=C/c3ccc(Cl)c(Cl)c3)C2)C/C1=C\c1ccc(Cl)c(Cl)c1
[out] Criterion met
